Test: logP(HCOOH) by HPLC
Assay type: physicochemical
Details: HPLC on reversed phase columns, pH 2.7, 0.1% formic acid in water / acetonitrile, linear gradient 10% to 95% acetonitrile; EEC directive 79/831 Annex V.A8
Returns one of y or n; y when log p is >= 4.

Compound: Cc1nnnn1C(=NOCc1cccc(NC(=O)OCCCC2CC2)n1)c1ccccc1
Assigned category: y
//
Compound: C=CCCOCC(=O)Nc1nc(CO/N=C(/c2ccccc2)n2nnnc2C)cs1
Assigned category: n
//
Compound: Cc1nnnn1C(=NOCc1csc(NC(=O)C(C)OC2CCCC2)n1)c1ccccc1 (centres unmarked)
Assigned category: n
//
Compound: C#CCOC(CC)C(=O)Nc1cccc(CON=C(c2ccccc2)n2nnnc2C)n1 (centres unmarked)
Assigned category: n
//
Compound: CCC(OC1CCC1)C(=O)Nc1nc(CON=C(c2ccccc2)n2nnnc2C)cs1 (centres unmarked)
Assigned category: n
//
Compound: CC(OC1CCC1)C(=O)Nc1nc(CON=C(c2ccccc2)c2nnnn2C)cs1 (centres unmarked)
Assigned category: n
//
Compound: CC(OC(=O)Nc1nc(CON=C(c2ccccc2)c2nnnn2C)cs1)C1CCCCC1 (centres unmarked)
Assigned category: y
//
Compound: CON=C(C(=O)Nc1cccc(CON=C(c2ccccc2)c2nnnn2C)n1)c1ccccc1Cl
Assigned category: y

---

Assay: logP(HCOOH) by HPLC
Type: physicochemical
Conditions: HPLC on reversed phase columns, pH 2.7, 0.1% formic acid in water / acetonitrile, linear gradient 10% to 95% acetonitrile; EEC directive 79/831 Annex V.A8
Where log p equals or exceeds 4, the correct label is met; where it does not, the label is not met.

Compound: CCC(OC1CCCCCC1)C(=O)Nc1nc(CON=C(c2ccccc2)n2nnnc2C)cs1 (centres unmarked)
Assigned category: met
//
Compound: C#CCOC(C)C(=O)Nc1cccc(CO/N=C(/c2ccccc2)n2nnnc2C)n1 (centres unmarked)
Assigned category: not met
//
Compound: CCON=C(C(=O)Nc1nc(CON=C(c2ccccc2)n2nnnc2C)cs1)c1ccc(C)cc1 [compound 126]
Assigned category: met
//
Compound: Cc1nnnn1C(=NOCc1csc(NC(=O)C(C)OC2CCC2)n1)c1ccccc1 (centres unmarked)
Assigned category: not met
//
Compound: CON=C(C(=O)Nc1nc(CON=C(c2ccccc2)c2nnnn2C)cs1)c1cccc(Cl)c1Cl
Assigned category: met
//
Compound: Cc1nnnn1C(=NOCc1csc(NC(=O)OCCC2CCCCC2)n1)c1ccccc1
Assigned category: met
//
Compound: CCON=C(C(=O)Nc1nc(CON=C(c2ccccc2)n2nnnc2C)cs1)c1ccc(Cl)cc1
Assigned category: met
//
Compound: Cc1nnnn1C(=NOCc1cccc(NC(=O)OCCC2CCCCC2)n1)c1ccccc1
Assigned category: met
//
Compound: Cn1nnnc1/C(=N\OCc1cccc(NC(=O)OCC2CCCCC2)n1)c1ccccc1
Assigned category: met
//
Compound: CCC(OC1CCCC1)C(=O)Nc1nc(CON=C(c2ccccc2)c2nnnn2C)cs1 (centres unmarked)
Assigned category: met
//
Compound: Cc1nnnn1C(=NOCc1csc(NC(=O)C(C)OC2CCC(C)CC2)n1)c1ccccc1 (centres unmarked)
Assigned category: met
//
Compound: CC1CCCC(OC(C)C(=O)Nc2nc(CON=C(c3ccccc3)c3nnnn3C)cs2)C1 (centres unmarked)
Assigned category: met
//
Compound: CC(OC1CCCCC1)C(=O)Nc1ccc(Br)c(CON=C(c2ccccc2)c2nnnn2C)n1 (centres unmarked)
Assigned category: met
//
Compound: Cn1nnnc1/C(=N\OCc1cccc(NC(=O)OCC2CC2)n1)c1ccccc1
Assigned category: not met
//
Compound: Cc1nnnn1C(=NOCc1csc(NC(=O)OCCCC2CCCC2)n1)c1ccccc1
Assigned category: met
//
Compound: Cn1nnnc1C(=NOCc1csc(NC(=O)OCCC2CCCC2)n1)c1ccccc1
Assigned category: met
//
Compound: Cc1nnnn1C(=NOCc1csc(NC(=O)OC(C)C2CCCC2)n1)c1ccccc1 (centres unmarked)
Assigned category: met
//
Compound: Cc1nnnn1C(=NOCc1csc(NC(=O)OCCCC2CCCCC2)n1)c1ccccc1
Assigned category: met
//
Compound: C=CCCOCC(=O)Nc1cccc(CO/N=C(/c2ccccc2)c2nnnn2C)n1
Assigned category: not met
//
Compound: C#CCOC(CC)C(=O)Nc1nc(CON=C(c2ccccc2)c2nnnn2C)cs1 (centres unmarked)
Assigned category: not met
//
Compound: CON=C(C(=O)Nc1nc(CON=C(c2ccccc2)c2nnnn2C)cs1)c1ccccc1Cl
Assigned category: not met

Ref: patent US20130012546A1
